IC50 values for mitochondrial RNA-polymerase (POLRMT) (Mus musculus, UniProt Q8BKF1), compiled from several publications.

Solved cases below.
mitochondrial RNA-polymerase (POLRMT) (Mus musculus, UniProt Q8BKF1) data for `CCOC(=O)C(C)(C)Oc1ccc2c(-c3ccccc3Cl)cc(=O)oc2c1` ; its IC50: 100 to 1000 nM

mitochondrial RNA-polymerase (POLRMT) (Mus musculus, UniProt Q8BKF1) data for `CCOC(=O)C[C@H]1CCCN(C(=O)[C@@H](C)Oc2ccc3c(-c4ccc(F)cc4Cl)cc(Cl)nc3c2)C1` ; its IC50: 1000 to 10000 nM

mitochondrial RNA-polymerase (POLRMT) (Mus musculus, UniProt Q8BKF1) data for Cc1cc(F)cc(C)c1-c1ccnc2cc(O[C@H](C)C(=O)N3CCCC4(CC4C(=O)O)C3)ccc12 (mixture of isomers) ; its IC50: < 20 nM

Next:
mitochondrial RNA-polymerase (POLRMT) (Mus musculus, UniProt Q8BKF1) data for `C[C@@H](Oc1ccc2c(-c3ccccc3)cc(=O)oc2c1)C(=O)O` ; its IC50: 1000 to 10000 nM

* * *

IC50 values for mitochondrial RNA-polymerase (POLRMT) (Mus musculus, UniProt Q8BKF1), compiled from several publications.

Solved cases below.
mitochondrial RNA-polymerase (POLRMT) (Mus musculus, UniProt Q8BKF1) data for Cc1ccccc1-c1cc(=O)oc2cc(OC(C)C(=O)N3CC[C@H](C(=O)O)C3)ccc12 (some centres unmarked) ; its IC50: < 20 nM

mitochondrial RNA-polymerase (POLRMT) (Mus musculus, UniProt Q8BKF1) data for `CN(C(=O)COc1ccc2c(-c3ccccc3)cc(=O)oc2c1)c1ccc(CCO)cc1` ; its IC50: 100 to 1000 nM

mitochondrial RNA-polymerase (POLRMT) (Mus musculus, UniProt Q8BKF1) data for CC(Oc1ccc2c(-c3ccccc3Cl)cc(=O)oc2c1)C(=O)N1CCC[C@H](C(=O)O)C1 (some centres unmarked) ; its IC50: < 20 nM

mitochondrial RNA-polymerase (POLRMT) (Mus musculus, UniProt Q8BKF1) data for `C[C@@H](Oc1ccc2c(-c3ccccc3Br)ccnc2c1)C(=O)N1CCC[C@H](CC(=O)O)C1` ; its IC50: < 20 nM

mitochondrial RNA-polymerase (POLRMT) (Mus musculus, UniProt Q8BKF1) data for `CCC(=O)N1CCN(C(=O)[C@@H](C)Oc2ccc3c(-c4ccccc4Cl)cc(Cl)nc3c2)CC1` ; its IC50: 100 to 1000 nM

Others:
mitochondrial RNA-polymerase (POLRMT) (Mus musculus, UniProt Q8BKF1) data for `COC(=O)c1cccc(NC(=O)[C@@H](C)Oc2ccc3c(-c4ccc(F)cc4Cl)cc(=O)oc3c2)n1` ; its IC50: 20 to 100 nM

mitochondrial RNA-polymerase (POLRMT) (Mus musculus, UniProt Q8BKF1) data for CCOC(=O)C(C)Oc1ccc2c(-c3ccc(Br)cc3)cc(=O)oc2c1 (centres unmarked) ; its IC50: 100 to 1000 nM

mitochondrial RNA-polymerase (POLRMT) (Mus musculus, UniProt Q8BKF1) data for `CC(C)NC(=O)C(C)(C)Oc1ccc2c(-c3ccccc3Cl)cc(=O)oc2c1` ; its IC50: 100 to 1000 nM

* * *

IC50 values for mitochondrial RNA-polymerase (POLRMT) (Mus musculus, UniProt Q8BKF1), compiled from several publications.

Solved cases below.
# IC50 of CC(Oc1ccc2c(-c3ccccc3Cl)ccnc2c1)C(=O)N(C)C (stereo not shown) = 1000 to 10000 nM

# IC50 of `C[C@@H](Oc1ccc2c(-c3ccccc3C(F)(F)F)ccnc2c1)C(=O)N1CCC[C@H](CC(=O)O)C1` = 100 to 1000 nM

# IC50 of CC(Oc1cc2oc(=O)cc(-c3ccccc3)c2cc1Cl)C(=O)NC[C@H]1CC[C@H](C(=O)O)CC1 (stereo partly shown) = 1000 to 10000 nM

# IC50 of `C[C@@H](Oc1ccc2c(-c3ccc(F)cc3Cl)ccnc2c1)C(=O)Nc1ccc(C(=O)O)cc1` = 100 to 1000 nM

# IC50 of `C[C@@H](Oc1ccc2c(-c3ccccc3Cl)cc(=O)oc2c1)C(=O)N1CCC[C@H](C(=O)O)C1` = < 20 nM

# IC50 of `COC(=O)c1ccc(NC(=O)[C@@H](C)Oc2ccc3c(-c4ccc(F)cc4Cl)cc(=O)oc3c2)cn1` = 20 to 100 nM

Others:
# IC50 of C[C@@H](Oc1ccc2c(-c3ccc(F)cc3Cl)ccnc2c1)C(=O)N1CCCC(C2(O)CC2)C1 (stereo partly shown) = 100 to 1000 nM

* * *

pIC50: −log10 of the molar value.
pIC50 values for mitochondrial RNA-polymerase (POLRMT) (Mus musculus, UniProt Q8BKF1), compiled from several publications.

# pIC50 of `C[C@@H](Oc1ccc2c(-c3ccccc3Cl)cc(=O)oc2c1)C(=O)N1CCC[C@H](C#N)C1` = > 7.70

# pIC50 of CC(Oc1cc2oc(=O)cc(-c3ccccc3)c2cc1Cl)C(=O)Nc1ccc(CCCO)cc1 (stereo not shown) = 6.00 to 7.00

# pIC50 of `NC(=O)COc1ccc2c(-c3ccccc3)cc(=O)oc2c1` = 5.00 to 6.00

Others:
# pIC50 of `C[C@@H](Oc1ccc2c(-c3ccccc3Cl)cc(Cl)nc2c1)C(=O)N1CCNCC1` = 5.00 to 6.00

* * *

IC50 values for mitochondrial RNA-polymerase (POLRMT) (Mus musculus, UniProt Q8BKF1), compiled from several publications.

Solved cases below.
# IC50 of `Cc1cccc(C)c1-c1ccnc2cc(O[C@H](C)C(=O)N3CCC[C@@H](S(N)(=O)=O)C3)ccc12` = < 20 nM

# IC50 of C[C@@H](Oc1ccc2c(-c3ccc(F)cc3Cl)ccnc2c1)C(=O)N1CCCC(S(N)(=O)=O)C1 (mixture of isomers) = 100 to 1000 nM

# IC50 of Cc1cc(F)cc(C)c1-c1ccnc2cc(O[C@H](C)C(=O)N3CCCC(C4(O)CC4)C3)ccc12 (mixture of isomers) = < 20 nM

Others:
# IC50 of Cc1ccccc1-c1cc(=O)oc2cc(OC(C)C(=O)N3CCCC3)ccc12 (stereo not shown) = < 20 nM

# IC50 of `C[C@@H](Oc1ccc2c(-c3c(Cl)cc(F)cc3Cl)ccnc2c1)C(=O)N1CCC2(CCNC2=O)CC1` = 100 to 1000 nM

# IC50 of `O=C(COc1cc2oc(=O)cc(-c3ccccc3)c2cc1Cl)Nc1ccc(CCO)cc1` = 100 to 1000 nM

# IC50 of CCOC(=O)C(CC)Oc1ccc2c(-c3ccccc3)cc(=O)oc2c1 (stereo not shown) = 1000 to 10000 nM

* * *

IC50 values for mitochondrial RNA-polymerase (POLRMT) (Mus musculus), compiled from several publications.

Solved cases below.
# IC50 of CC(Oc1ccc2c(-c3ccccc3Cl)cc(=O)oc2c1)C(=O)N1CCC(S(N)(=O)=O)C1 (stereo not shown) = 20 to 100 nM

# IC50 of CC(Oc1ccc2c(-c3ccccc3)cc(=O)oc2c1)C(=O)Oc1ccccc1 (stereo not shown) = 1000 to 10000 nM

# IC50 of `C[C@@H](Oc1ccc2c(-c3ccc(F)cc3Cl)cc(=O)oc2c1)C(=O)Nc1ccc(C(=O)O)cc1` = < 20 nM

Next:
# IC50 of `C[C@@H](Oc1ccc2c(-c3ccccc3N(C)C)ccnc2c1)C(=O)N1CCC[C@H](CC(=O)O)C1` = 100 to 1000 nM

* * *

IC50 values for mitochondrial RNA-polymerase (POLRMT) (Mus musculus, UniProt Q8BKF1), compiled from several publications.

mitochondrial RNA-polymerase (POLRMT) (Mus musculus, UniProt Q8BKF1) data for `CCC(=O)N1CCN(C(=O)[C@@H](C)Oc2ccc3c(-c4ccc(F)cc4Cl)cc(=O)oc3c2)CC1` ; its IC50: < 20 nM

mitochondrial RNA-polymerase (POLRMT) (Mus musculus, UniProt Q8BKF1) data for Cc1ccccc1-c1cc(=O)oc2cc(OC(C)C(=O)NC3CC3)ccc12 (centres unmarked) ; its IC50: < 20 nM

mitochondrial RNA-polymerase (POLRMT) (Mus musculus, UniProt Q8BKF1) data for `Cc1cc(-c2ccccc2C)c2ccc(O[C@H](C)C(=O)N3CCC[C@H](CC(=O)O)C3)cc2n1` ; its IC50: 100 to 1000 nM

mitochondrial RNA-polymerase (POLRMT) (Mus musculus, UniProt Q8BKF1) data for `C[C@@H](Oc1ccc2c(-c3ccc(F)cc3Cl)cc(=O)oc2c1)C(=O)N1CCC[C@H](C(N)=O)C1` ; its IC50: < 20 nM

mitochondrial RNA-polymerase (POLRMT) (Mus musculus, UniProt Q8BKF1) data for CC(Oc1ccc2c(-c3ccccc3)cc(=O)oc2c1)C(=O)N1CCC[C@H](C(=O)O)C1 (some centres unmarked) ; its IC50: 100 to 1000 nM

Others:
mitochondrial RNA-polymerase (POLRMT) (Mus musculus, UniProt Q8BKF1) data for `CCOC(=O)[C@H]1CCN(C(=O)[C@@H](C)Oc2ccc3c(-c4ccc(F)cc4Cl)ccnc3c2)C1` ; its IC50: 100 to 1000 nM

mitochondrial RNA-polymerase (POLRMT) (Mus musculus, UniProt Q8BKF1) data for CCOC(=O)C(C)Oc1ccc2c(-c3ccc(OC)cc3)cc(=O)oc2c1 (centres unmarked) ; its IC50: 1000 to 10000 nM

mitochondrial RNA-polymerase (POLRMT) (Mus musculus, UniProt Q8BKF1) data for `Cc1ccccc1-c1cc(Cl)nc2cc(O[C@H](C)C(=O)O)ccc12` ; its IC50: 100 to 1000 nM
